Cited source for all entries: the supplement of paper PMC10065799

sequences and their reported phosphorylation enrichment
# System: c-Src;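 also: 11-residue human phosphosite peptides and single-mutation variants displayed on the E. coli surface, counted by deep sequencing, each peptide's frequency after selection divided by its frequency in the unselected input library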;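 also: frequency after pTyr selection over input frequency; kinase dosed for 20-30% of maximal phosphorylation in three min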
# MEASUREMENT_PROTOCOL: phosphorylation enrichment, bacterial display (enrichment ratio); higher = better substrate or ligand; peptides without Tyr show the background
Just the number, please, no unit after it.

Consider the worked cases shown below.
INSERT INTO results (construct_sequence, experimental_readout, test_result) VALUES
  ('CSPLLYRVIMS [OR8D4_Y132]', 'phosphorylation enrichment', 0.449),
  ('KRAAIYNPVIF [RHO_Y301_S297R_YF]', 'phosphorylation enrichment', 2.22),
  ('TVQIMYGCDVG [HLA-A_Y123_I119V]', 'phosphorylation enrichment', 0.47);

Next, consider the following sequence.
Query :: For the sequence shown here, SLKEFYGEDAK [ALDH3A1_Y272] , give the reported phosphorylation enrichment.
Result :: 0.44
